Below, each entry is listed with its recorded AUC, modulator BJ.ALLN.
# Tested on: BJeLR
# protocol.text: Modulatory profiling: Alamar Blue viability, lethal compound cotreated with death modulator (EC50, AUC)
# Type: cell-based, human
# Set-up: unit not given beside the values
# condition.notes: BJeLR cells; lethal compound cotreated with modulator ALLN; modulatory profile value (AUC)

For the molecule N/C(Cc1ccc(Cl)cc1)=N\OC(=O)c1cccc2ccccc12 [CIL70] , the measured AUC, modulator BJ.ALLN on BJeLR was −0.07036

// AUC, modulator BJ.ALLN (BJeLR) for COC(C)(C)C#CC(=O)c1cccc2ccccc12 [CIL34] = −0.04374

Tested on BJeLR: O=C1c2c(O)ccc(O)c2C(=O)c2c(NCCNCCO)ccc(NCCNCCO)c21 [Mitoxantrone] . Observed AUC, modulator BJ.ALLN: 0.06204

AUC, modulator BJ.ALLN for BJeLR with input CC1=CC(C)(C)Nc2ccc(OC(=O)c3ccco3)cc21 [CIL2] equals −0.03978

Item COc1cccc2c1C(=O)c1c(O)c3c(c(O)c1C2=O)C[C@@](O)(C(=O)CO)C[C@@H]3O[C@H]1C[C@H](N)[C@H](O)[C@H](C)O1 [Doxorubicin] ; assay system BJeLR; AUC, modulator BJ.ALLN reported as 0.01555

====

# Tested on: HT-1080
# protocol.text: Modulatory profiling: Alamar Blue viability, lethal compound cotreated with death modulator (EC50, AUC)
# Assay type: cell-based
# Set-up: unit not given beside the values
# condition.notes: HT-1080, modulator ActD
Where a SMILES comes first, the peptide text is derived from it. The star is where a group is joined. Cbz = O=C(OCc1ccccc1)*
Lab note: anything with AUC HT.ActD at or over 0.02 counts as 1 (yes); the rest go in 0 (no).

Consider the following illustrative entries.
[N-]=[N+]=[N-].[Na+] [NaN3]: 1 (yes)
Cc1cccc(-n2ncc(Cl)c(Cl)c2=O)c1 [CIL22]: 0 (no)
COc1cc([C@@H]2c3cc4c(cc3[C@H](O)[C@H]3COC(=O)[C@H]23)OCO4)cc(OC)c1OC [Podophyllotoxin]: 0 (no)
COC(C)(C)C#CC(=O)c1cccc2ccccc12 [CIL34]: 0 (no)
CCOc1ccccc1-n1c(C(C)N2CCN(C(=O)COc3ccc(Cl)cc3)CC2)nc2ccccc2c1=O (stereo not shown) [erastin, reference compound]: 0 (no)
CC1CC(C)(C)Nc2ccc(OC(=O)c3ccco3)cc21 (stereo not shown) [CIL4]: 0 (no)

Q. I'd appreciate it if you could say whether CC(C)[C@@H]1NC(=O)[C@H](C)OC(=O)[C@@H](C(C)C)NC(=O)[C@@H](C(C)C)OC(=O)[C@H](C(C)C)NC(=O)[C@H](C)OC(=O)[C@@H](C(C)C)NC(=O)[C@@H](C(C)C)OC(=O)[C@H](C(C)C)NC(=O)[C@H](C)OC(=O)[C@@H](C(C)C)NC(=O)[C@@H](C(C)C)OC1=O [Vatinomycin] has AUC HT.ActD at least equal to 0.02.
A. 1 (yes)

Q. AUC HT.ActD >= 0.02 for CC(C)(C)C1CCc2c(sc(NC(=O)CN3CCNCC3)c2C(N)=O)C1 (stereo not shown) [CIL10] ?
A. 0 (no)

Q. Check if AUC HT.ActD >= 0.02 (inclusive). Item: C=CCC1(Cl)C(=O)C(Cl)=C(n2ccnc2)C1(OC)OC (stereo not shown) [CIL76]
A. 1 (yes)

Q. Is the recorded value of AUC HT.ActD equal to or greater than 0.02 for this molecule? CC(C)C[C@@H](C=O)NC(=O)[C@H](CC(C)C)NC(=O)[C@H](CC(C)C)NC(=O)OCc1ccccc1 [MG132, reference compound] (Cbz-Leu-Leu-Leu-aldehyde)
A. 0 (no)

Q. I'd appreciate it if you could say whether CC(/C=C/C(=O)NO)=C\[C@@H](C)C(=O)c1ccc(N(C)C)cc1 [TrichostatinA] has AUC HT.ActD at least equal to 0.02.
A. 0 (no)

Q. Evaluate CN(C)CCNC(=O)c1cc2c(s1)-c1ccc(Cl)cc1SC2 [CIL55] : AUC HT.ActD at minimum 0.02?
A. 0 (no)

====

Parameter AUC, modulator BJ.ALLN: see the listing below.
# Tested on: BJeLR
# protocol.text: Modulatory profiling: Alamar Blue viability, lethal compound cotreated with death modulator (EC50, AUC)
# Type: cell-based, human
# Set-up: unit not given beside the values
# condition.notes: BJeLR cells; lethal compound cotreated with modulator ALLN; modulatory profile value (AUC)
Answer with the value's number alone.

Some compounds with recorded AUC, modulator BJ.ALLN:
O=C(/C=C/c1cccc(NC(=O)c2cccs2)c1)c1ccccc1: −0.1124
COc1cccc2c1C(=O)c1c(O)c3c(c(O)c1C2=O)C[C@@](O)(C(C)=O)C[C@@H]3O[C@H]1C[C@H](N)[C@H](O)[C@H](C)O1: 0.02846
COc1ccc(Nc2ccc3c(c2)=NC2(CCCCC2)[N+]=3[O-])cc1: −0.1202
COC(=O)[C@@H]1Cc2c([nH]c3ccccc23)C(C)(C)N1C(=O)CCl: 0.02717
O=c1c(N2CCCC2)c(Cl)cnn1-c1ccccc1: −0.09098
CCOc1ccccc1-n1c(C(C)N2CCN(C(=O)COc3ccc(Cl)cc3)CC2)nc2ccccc2c1=O (centres unmarked) [erastin, reference compound]: −0.05751

Reported AUC, modulator BJ.ALLN of CC1CC(C)(C)Nc2ccc(OC(=O)c3ccco3)cc21 (centres unmarked) : −0.003083

Value of AUC, modulator BJ.ALLN reported for the compound Nc1ccccc1NC(=O)c1ccc(CNC(=O)OCc2cccnc2)cc1 is −0.03932

====

# Tested on: BJeLR
# protocol.text: Modulatory profiling: Alamar Blue viability, lethal compound cotreated with death modulator (EC50, AUC)
# Format: cell-based, human
# condition.notes: BJeLR cells; lethal compound cotreated with modulator NMMA; modulatory profile value (AUC)
Where a SMILES comes first, the peptide text is derived from it. The star is where a group is joined. Cbz = O=C(OCc1ccccc1)*
measured.endpoint: AUC, modulator BJ.NMMA
Just the number.

O=P(Oc1ccccc1)(Oc1ccccc1)O[C@@H]1C=CS(=O)(=O)C1 [CIL44]: 0.02894
CS[C@H]1SC[C@H]2C(=O)N(C)[C@@H](C(C)C)C(=O)OC[C@@H](NC(=O)c3cnc4ccccc4n3)C(=O)N[C@@H](C)C(=O)N(C)[C@@H]1C(=O)N(C)[C@@H](C(C)C)C(=O)OC[C@@H](NC(=O)c1cnc3ccccc3n1)C(=O)N[C@@H](C)C(=O)N2C [Echinomycin]: 0.01082
[O-][N+]1=c2ccc(Nc3ccccc3)cc2=NC12CCCCC2 [CIL66]: −0.02558
CC(C)C[C@@H](C=O)NC(=O)[C@H](CC(C)C)NC(=O)[C@H](CC(C)C)NC(=O)OCc1ccccc1 [MG132, reference compound] (Cbz-Leu-Leu-Leu-aldehyde): 0.02073
O=C(CCCCCN1C(=O)c2cccc3cccc(c23)C1=O)NO [Scriptaid]: 0.02102
COc1nn(-c2ccccc2)c(=O)c(Cl)c1Cl [CIL23]: −0.01242
CCCCS(=O)(=O)/C=C\C=C/S(=O)(=O)CCCC [CIL49]: 0.006898
Cc1[nH]c2c(ccc3ccccc32)c1C1C(CCN)C1(C)C (stereo not shown) [CIL74]: 0.01059
CC(/C=C/C(=O)NO)=C\[C@@H](C)C(=O)c1ccc(N(C)C)cc1 [TrichostatinA]: −0.01861

// AUC, modulator BJ.NMMA lookup, compound = Cc1cccc(-n2ncc(Cl)c(Cl)c2=O)c1 [CIL22] , result: −0.007412

====

# Test system: BJeLR
# protocol.text: Modulatory profiling: Alamar Blue viability, lethal compound cotreated with death modulator (EC50, AUC)
# Assay type: cell-based, human
# condition.notes: BJeLR cells; lethal compound cotreated with modulator Lmin/NAD+; modulatory profile value (AUC)
# strict inequality: AUC, modulator BJ.Lmin/NAD+ < 0.05 yields criterion met, everything else yields criterion not met

N/C(=N\OC(=O)C12CC3CC(CC(C3)C1)C2)c1ccccc1: criterion not met
CC1=CC(C)(C)Nc2ccc(OC(=O)c3ccco3)cc21: criterion met
O=c1c(N2CCCC2)c(Cl)cnn1-c1ccccc1: criterion met

Q. In plain terms, does C=C(C)[C@H]1Cc2c(ccc3c2O[C@@H]2COc4cc(OC)c(OC)cc4[C@@H]2C3=O)O1 come in under 0.05 for AUC, modulator BJ.Lmin/NAD+?
A. criterion not met

Q. API: query returns whether the compound falls strictly under 0.05 in AUC, modulator BJ.Lmin/NAD+. Query: CCCS(=O)(=O)c1nnnn1-c1cccc(OC)c1
A. criterion met

Q. Report whether reported AUC, modulator BJ.Lmin/NAD+ is lower than 0.05 (strictly) for COc1ccc(-n2nnnc2S(=O)(=O)CC(=O)N2CCCCC2)cc1
A. criterion not met

Q. Hello, I'm reviewing records and need to know if AUC, modulator BJ.Lmin/NAD+ of O=C(CCl)N(c1ccccc1)c1c[nH]c2ccccc12 is below 0.05. Could you check?
A. criterion not met

Q. # strict comparison: is reported AUC, modulator BJ.Lmin/NAD+ < 0.05? input = CCCCNc1c(Cl)cnn(-c2ccccc2)c1=O
A. criterion met

Q. Could you please tell me whether AUC, modulator BJ.Lmin/NAD+ recorded for O=C1C(Cl)=C(N2CCOCC2)C(=O)C(Cl)=C1N1CCOCC1 is less than 0.05?
A. criterion met

Q. AUC, modulator BJ.Lmin/NAD+ strictly < 0.05 for this compound? Nc1ccccc1NC(=O)c1ccc(CNC(=O)OCc2cccnc2)cc1
A. criterion not met

Q. Could you please tell me whether AUC, modulator BJ.Lmin/NAD+ recorded for C[C@H]1CCC[C@]2(C)C[C@H]3OC(=O)[C@H](CN4CCCC4)[C@H]3C=C12 is less than 0.05?
A. criterion not met
